Just for reference, patent US10703748B2 is where these values come from.

Study Target: GSK3β kinase (Homo sapiens, UniProt P49841)
Sequence (P49841 whole entry): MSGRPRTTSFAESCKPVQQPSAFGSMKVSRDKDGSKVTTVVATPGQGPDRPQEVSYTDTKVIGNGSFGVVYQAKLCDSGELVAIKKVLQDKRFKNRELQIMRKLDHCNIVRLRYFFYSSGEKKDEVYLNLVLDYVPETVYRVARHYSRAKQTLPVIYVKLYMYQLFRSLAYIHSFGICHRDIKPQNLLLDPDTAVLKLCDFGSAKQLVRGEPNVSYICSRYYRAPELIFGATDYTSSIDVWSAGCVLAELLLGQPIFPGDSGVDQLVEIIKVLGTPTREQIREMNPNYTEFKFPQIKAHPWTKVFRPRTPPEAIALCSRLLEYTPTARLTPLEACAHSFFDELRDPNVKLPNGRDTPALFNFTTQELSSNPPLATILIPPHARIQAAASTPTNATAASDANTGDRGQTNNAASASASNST
Assay Comment: GSK3β kinase activity (Ser/Thr 09 peptide Z-lyte FRET assay)
Format: biochemical
Test Parameters: recombinant kinase, 46 μM ATP, one hour at room temperature; read-out: EC50
Metric: EC50 (nM)

> print(dat)
                                   compound  metric  result.value
1  C[C@H]1CCCN1CC(=O)Nc1cc2cc(-c3cnn(C)c3)ncc2cn1 [Compound 3674]    EC50            21

I = O=C(Nc1cc2nc(-c3cncc(NCC4(F)CNC4)n3)ccc2cn1)C1CC1 [Compound 871]
II = CC(C)CN1CCC(C(=O)Nc2cc3cc(-c4cnn(C)c4)cnc3cn2)CC1 [Compound 2736]
In the pair I and II , the larger recorded EC50 belongs to which? Record your answer as the label of the chosen record.
II

---

System: α-smooth muscle actin (aSMA) positive LL29 cells
Assay Comment: Inhibition of the fibrotic process: αSMA staining in TGF-β1 treated LL29 fibroblasts from IPF patients
Test Parameters: Homo sapiens, Fibroblast, 96 h
Metric: pEC50
Please treat pEC50 as minus the base-10 logarithm of the molar concentration.

> print(dat)
                               query.smiles  result.value
1  Cn1cc(-c2ccc3cnc(NC(=O)C4CCN(Cc5ncco5)CC4)cc3n2)cn1          6.35
2  CN1CCCN(CC(=O)Nc2cc3cc(-c4cnn(C)c4)ncc3cn2)CC1          5.74
3  Cc1ncc(-c2ccc3cnc(NC(=O)C4CCN(C5COC5)CC4)cc3n2)s1          6.11
4  Cn1cc(-c2ccc3cnc(NC(=O)[C@H]4CC[C@H](N)CC4)cc3n2)cn1          6.18

Query molecule follows.
Sample CN1CCC(Oc2ccc(C(=O)Nc3cc4cc(-c5cnn(C)c5)ncc4cn3)cc2)CC1 — what was its pEC50?
5.95

---

This listing pairs compounds with measured pEC50.
Tested on: α-smooth muscle actin (aSMA) positive LL29 cells
Assay Comment: Inhibition of the fibrotic process: αSMA staining in TGF-β1 treated LL29 fibroblasts from IPF patients
Test Parameters: Homo sapiens, Fibroblast, 96 h
Please treat pEC50 as minus the base-10 logarithm of the molar concentration.

> print(dat)
                                   compound                              study.target  metric  result.value
1  Cn1ncc(-c2ccc3cnc(NC(=O)C4CC5(C4)CN(CCF)C5)cc3n2)c1CN1CCCCC1 [Compound 280]  α-smooth muscle actin (aSMA) positive LL29 cells   pEC50          5.60
2  CN1CCN(c2cc(C(=O)Nc3cc4nc(-c5ccc(N)nc5)ccc4cn3)ccn2)CC1 [Compound 807]  α-smooth muscle actin (aSMA) positive LL29 cells   pEC50          5.85
3  Cn1cc(-c2cc3cc(NC(=O)CC4CNCCO4)ncc3cn2)cn1 (centres unmarked) [Compound 3714]  α-smooth muscle actin (aSMA) positive LL29 cells   pEC50          5.81
4  CN(C)CCNc1cc(C(=O)Nc2cc3cc(-c4cnn(C)c4)ncc3cn2)ccn1 [Compound 3791]  α-smooth muscle actin (aSMA) positive LL29 cells   pEC50          5.31
5  CN1CCc2ccc(C(=O)Nc3cc4cc(-c5cnn(C)c5)ncc4cn3)cc2C1 [Compound 3829]  α-smooth muscle actin (aSMA) positive LL29 cells   pEC50          6.12

Sample Cc1ncc(-c2ccc3cnc(NC(=O)C4CCN(C(=O)CN5CCCC5)CC4)cc3n2)s1 [Compound 4561] — what was its pEC50?
6.18

Sample CC(C)OCCC(=O)Nc1cc2nc(-c3cncn3C)ccc2cn1 [Compound 416] — what was its pEC50?
6.45

Sample Cc1ncc(-c2ccc3cnc(NC(=O)C4CCN(C)CC4)cc3n2)s1 [Compound 640] — what was its pEC50?
6.17
